Just for reference, the supplement of paper PMC8728848 is where these values come from.

# experimental_target: Gal(b1-4)GlcNAc(b1-6)GalNAc
# test_summary: glycan array binding signal (z-score within array); higher = stronger binding
# condition_set: glycan notation: IUPAC condensed, linker removed
This excerpt belongs to a sample that is enriched for the strongest signals.
For each of the binders below, state its glycan array binding signal (z-score).

binder: cFel (Cyprinus carpio), P68512 (protein) LDCTVIDGNLKQIDAGSGSVVGVNNLNETFVLIDNVFTKISGSLKHFSVGPAGQLGVNTANNIFKYQSGGFVQLAGLLKQVDAGGDQIIAGVNMYDDIYCLNMDANNKWPSSNTPWVQINGKLKYYSCGPYSCWGVNSNDQIFIMKDVSSNVCSGSGSFINIPGLLSMIEVATDGSVFGVNSQGNLYQRTGVTRSKPDGTDWISMVACPNGHKHVSFDLGVLWLVCVDGSIRKCILTD
glycan array binding signal (z-score): 1.54

What value of glycan array binding signal (z-score) has been recorded for this entry: Gal 12 (Homo sapiens), Q96DT0 (protein) MSQPSGGRAPGTRIYSWSCPTVMSPGEKLDPIPDSFILQPPVFHPVVPYVTTIFGGLHAGKMVMLQGVVPLDAHRFQVDFQCGCSLCPRPDIAFHFNPRFHTTKPHVICNTLHGGRWQREARWPHLALRRGSSFLILFLFGNEEVKVSVNGQHFLHFRYRLPLSHVDTLGIFGDILVEAVGFLNINPFVEGSREYPAGHPFLLMSPRLEVPCSHALPQGLSPGQVIIVRGLVLQEPKHFTVSLRDQAAHAPVTLRASFADRTLAWISRWGQKKLISAPFLFYPQRFFEVLLLFQEGGLKLALNGQGLGATSMNQQALEQLRELRISGSVQLYCVHS 0.417
